TARGET_ENTITY: T1, 3-pHis peptide (Biotin-AminocaproicAcid-A.G.A.G.H.A.G.A.G phosphorylated by phosphoramidate)
T1 construct: His-peptide, phosphorylated on His5; the phosphoramidate reaction gives a mixture of non-phosphorylated, 1-pHis, 3-pHis and di-pHis peptide; also called Biotinylated ACLYana-3-pHis; ACLYana-pHis; source: synthetic peptide, phosphorylated with potassium phosphoramidate; not shown: biotin, N-terminal, kept
T1 peptide: {Biotin-Ahx}-AGAG[3‑pHis]AGAG
ASSAY_NAME: BLI; Octet RED96e; biotinylated peptides captured on streptavidin biosensors at 20 nM; Fab in solution, 20-200 nM; 1x HBS-T, 1% BSA
Property: pKd; scope: individual binders
Expect pKd as a plain number equal to -log10 of the molar concentration.

Example binders with recorded pKd:
BINDER	pKd
hSC44.20.N32F^L Fab (Fab, V domains shown) VH: EVQLVESGGGLVQPGGSLRLSCTASGFSIDSYGFSWVRQAPGKGLEHIGYLTAGGRAFYASWAKSRSTITRNTNENTVTLKMNSLRAEDTAVYYCAKLGTGSRFAIWGQGTLVTVSS VL: DIQMTQSPSSLSASVGDRVTITCRASQSVWRNKFVAWYQQKPGKAPKRLIYAIASLYSGVPSRFSGSGSGTDFTLTISSLQPEDFATYYCVGHYGSENDAYYAFGQGTKVEIK	8.18
hSC44.20.N32Y^L Fab (Fab, V domains shown) VH: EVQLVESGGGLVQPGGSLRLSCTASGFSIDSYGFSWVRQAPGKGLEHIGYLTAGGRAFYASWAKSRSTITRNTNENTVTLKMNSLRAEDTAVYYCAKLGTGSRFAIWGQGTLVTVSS VL: DIQMTQSPSSLSASVGDRVTITCRASQSVWRNKYVAWYQQKPGKAPKRLIYAIASLYSGVPSRFSGSGSGTDFTLTISSLQPEDFATYYCVGHYGSENDAYYAFGQGTKVEIK	8.29
rSC44 Fab (Fab, V domains shown) VH: QSVKESGRGLVQPGGSLTLTCTASGFSIDSYGFSWVRQAPGKGLEHIGYLTAGGRAFYASWAKSRSTITRNTNENTVTLKMTSLTAADTATYFCAKLGSGNPVAIWGPGTLVTVSS VL: QVLTQTPSFTSAAVGGTVTINCQSSQSVWRNKNLAWYQQKPGQPPKRLIYAIATLDSGVPSRFSGSGSGTQFTLTISDVQCDDAATYYCVGHYGSENDAYYAFGGGTEVVVK	7.31
hSC44 Fab (Fab, V domains shown) VH: EVQLVESGGGLVQPGGSLRLSCTASGFSIDSYGFSWVRQAPGKGLEHIGYLTAGGRAFYASWAKSRSTITRNTNENTVTLKMNSLRAEDTAVYYCAKLGSGNPVAIWGQGTLVTVSS VL: DIQMTQSPSSLSASVGDRVTITCRASQSVWRNKNVAWYQQKPGKAPKRLIYAIASLYSGVPSRFSGSGSGTDFTLTISSLQPEDFATYYCVGHYGSENDAYYAFGQGTKVEIK	7.39

Value lookup for pKd; key = hSC44.20 Fab (Fab, V domains shown) VH: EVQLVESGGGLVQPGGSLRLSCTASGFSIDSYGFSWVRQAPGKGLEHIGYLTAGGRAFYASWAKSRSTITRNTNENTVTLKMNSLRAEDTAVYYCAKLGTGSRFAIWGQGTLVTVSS VL: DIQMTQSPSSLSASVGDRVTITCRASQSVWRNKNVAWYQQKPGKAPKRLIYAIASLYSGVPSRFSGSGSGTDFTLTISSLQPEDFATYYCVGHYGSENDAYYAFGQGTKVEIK
7.76
